B1: EEHEE_rd4_0469 (parent)
chain: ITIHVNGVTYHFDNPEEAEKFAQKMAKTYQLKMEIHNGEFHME

Variants of: B1
assay.comment: folding stability dG (cDNA display proteolysis); higher = more stable
assay.setup: PBS, room temperature
property.measured: folding stability dG (kcal/mol)
State just the number; it will be interpreted in kcal/mol.

-- ask Fill blank: measured folding stability dG of the variant ITIHVNGVTYHQDNPEEAEKFAQKMAKTYQLKMEIHNGEFHME [F12Q] is ____.
-- reply -0.822

-- ask Input ITIHVNGVTYHFDNPEEAEKFANKMAKTYQLKMEIHNGEFHME [Q23N]
-- reply 0.986

-- ask Now the variant ITIHVNGVTYHFDNPEEEEKFAQKMAKTYQLKMEIHNGEFHME [A18E]
-- reply 0.011

-- ask Thanks! And ITIHVNGVTYHFDNPEEAEKFAQKMAKTYQLKMEIWNGEFHME [H36W] ?
-- reply 1.24

-- ask Do the same for ITIHVNGVTYHFDNPEEAEKFAQKMAKTYQLKMEIHNGEFGME [H41G] please
-- reply 0.628

-- ask How about ITIHVNGVTYHFDNPEEAEKFFQKMAKTYQLKMEIHNGEFHME [A22F] ?
-- reply 0.747

-- ask Can you handle ITIHVNGVTYHFDNPEEWEKFAQKMAKTYQLKMEIHNGEFHME [A18W] next?
-- reply 0.81

-- ask And what about the variant ITIHVNGVTSHFDNPEEAEKFAQKMAKTYQLKMEIHNGEFHME [Y10S] ?
-- reply -0.597

-- ask Try this variant next: ITIHVNGVTYHFDNPEEAIKFAQKMAKTYQLKMEIHNGEFHME [E19I]
-- reply 1.5

-- ask Now consider ITIHVNGVTYHFDNPEEAEKFMQKMAKTYQLKMEIHNGEFHME [A22M] .
-- reply 1.19

-- ask Follow-up entry: ITIHVNGVTTHFDNPEEAEKFAQKMAKTYQLKMEIHNGEFHME [Y10T]
-- reply 0.067

-- ask ITIHVNGVTYHFDNPEEAEVFAQKMAKTYQLKMEIHNGEFHME [K20V] ?
-- reply 1.17

-- ask ITIHVNGVTYHFDNPEEAEKFAQKMAKTYQLLMEIHNGEFHME [K32L] ?
-- reply 1.52

-- ask Quick one: ITIHVNGVTYHFDNPEEAEKFAQKMAKTYQLKMEIHNGEFHMT [E43T]
-- reply 1.72

-- ask Consider next the variant ITIHVNGVTYHFDNPEFAEKFAQKMAKTYQLKMEIHNGEFHME [E17F] in the same way.
-- reply 0.96

-- ask Follow-up entry: IRIHVNGVTYHFDNPEEAEKFAQKMAKTYQLKMEIHNGEFHME [T2R]
-- reply 1.46

-- ask // query: ITIHVNGVTYHFDNPEEAEKFAQKMAKTYQLKMEIHNPEFHME [G38P]
-- reply 0.616

-- ask Check ITIHVNVVTYHFDNPEEAEKFAQKMAKTYQLKMEIHNGEFHME [G7V] too.
-- reply 1.83
